molecular target: Recombinant human 17β-HSD13 (Homo sapiens); construct: host or cells: Sf9 insect cells; test: 17β-HSD13 rapid-fire mass spectrometry assay (RF/MS assay); type: biochemical; conditions: inhibition of 17β-HSD13, RF/MS assay; HSD17B13 80 nM, LTB4 10 μM, NAD+ 0.5 mM, RT 3 h
Exercise: for every item that follows, state its recorded IC50.

What does the data say about its IC50? Entry: COc1ccc(-c2nc3sc4c(O)c(Cl)ccc4c3c(=O)n2Cc2cncs2)c(C2CC2)c1
< 100 nM

Do the same for COc1ccc(-c2nc3sc4c(F)cccc4c3c(=O)n2Cc2cnco2)c(C2CC2)c1 please
> 10000 nM

Do the same for O=c1c2c(nc(-c3cc(F)c(Cl)cc3C3CC3)n1Cc1cnco1)sc1c(O)c(Cl)ccc12 please
< 100 nM

Do the same for COc1ccc(-c2nc3sc4cc(O)ccc4c3c(=O)n2Cc2cnco2)c(C2CC2)c1 please
> 10000 nM

Do the same for COc1cc(C2CC2)c(-c2nc3sc4c(O)c(Cl)ccc4c3c(=O)n2Cc2cnco2)cc1F please
< 100 nM

Do the same for O=c1c2c(nc(-c3ccc(OC(F)(F)F)cc3C3CC3)n1Cc1cnco1)sc1c(O)c(Cl)ccc12 please
< 100 nM

Do the same for O=c1c2c(nc(-c3c(C4CC4)cc(F)c(F)c3F)n1Cc1cnco1)sc1c(O)c(Cl)ccc12 please
< 100 nM

Do the same for CC(C)Oc1ccc(-c2nc3sc4c(O)c(Cl)ccc4c3c(=O)n2Cc2cnco2)c(C2CC2)c1 please
< 100 nM

* * *

Molecular target: human HSD17β13 (stable HEK293T cell line overexpressing human HSD17β13) (Homo sapiens, UniProt Q7Z5P4)
Construct: expressed in transfected cells
Assay: HSD17β13 inhibitor cell-based screening assay (conversion of estradiol-d2 to estrone-d2 by RF-MS)
Details: conversion of estradiol-d2 to estrone-d2 after 24 hours
Description: The purpose of this cell-based assay is to determine the cellular efficacy (IC50) of HSD17β13 inhibitors in a stable HEK293 T cell line overexpressing human HSD17β13. […] Cytotoxicity was also assessed via luminescent signal generated by the ATPlite viability assay reagent. […] Supernatant is collected and immediately frozen after 24 hours of incubation, and conversion of estradiol-d2 to estrone-d2 is measured at Pure Honey by RF-MS. […] Afterwards, cells were immediately counted and seeded onto the plate. […]
Exercise: for every item that follows, state its recorded IC50.

What does the data say about its IC50? Entry: Cn1ncc2cc(-c3nc4sc5c(O)c(Cl)ccc5c4c(=O)n3Cc3cnc(C(F)(F)F)nc3)c(C3CC3)cc21
< 0.1 µM

Do the same for COc1ccc(-c2nc3sc4c(O)c(Br)ccc4c3c(=O)n2Cc2cnco2)c(C2CC2)c1 please
< 0.1 µM

Do the same for CS(=O)(=O)c1ccc(-c2nc3sc4c(O)c(Cl)ccc4c3c(=O)n2Cc2cnc(C(F)(F)F)nc2)c(C2CC2)c1 please
< 0.1 µM

Do the same for COc1ccc(-c2nc3sc4c(O)c(Cl)cc(C)c4c3c(=O)n2Cc2cnco2)c(C2CC2)c1 please
0.1 to 0.5 µM

Do the same for N#Cc1ccc(Cn2c(-c3cc(F)c(F)cc3C3CC3)nc3sc4c(O)c(Cl)ccc4c3c2=O)cn1 please
< 0.1 µM

Do the same for COc1ccc(-c2nc3sc4c(O)cccc4c3c(=O)n2Cc2ocnc2F)c(C2CC2)c1 please
0.1 to 0.5 µM

Do the same for O=c1c2c(nc(-c3ncc(F)cc3C3CC3)n1Cc1cc(C(F)(F)F)no1)sc1c(O)c(Cl)ccc12 please
< 0.1 µM

* * *

Exercise: for every item that follows, state its recorded IC50.
target: human HSD17β13 (stable HEK293T cell line overexpressing human HSD17β13) (Homo sapiens, UniProt Q7Z5P4); experiment: HSD17β13 inhibitor cell-based screening assay (conversion of estradiol-d2 to estrone-d2 by RF-MS); conditions: conversion of estradiol-d2 to estrone-d2 after 24 hours

What does the data say about its IC50? Entry: COc1ccc(-c2nc3sc4c(S(=O)(=O)O)cccc4c3c(=O)n2Cc2cnco2)c(C2CC2)c1
1000 to 100000 nM

Do the same for COc1cc(-c2nc3sc4c(O)c(Cl)ccc4c3c(=O)n2Cc2cnco2)c(C2CC2)cc1F please
< 100 nM

Do the same for O=c1c2c(nc(-c3c(C4CC4)ccc(C(F)(F)F)c3F)n1Cc1cnco1)sc1c(O)c(Cl)ccc12 please
< 100 nM

Do the same for O=c1c2c(nc(-c3ccc(C(F)F)cc3C3CC3)n1Cc1cc(C(F)(F)F)no1)sc1c(O)c(Cl)ccc12 please
< 100 nM

* * *

Biological target: human HSD17β13 (stable HEK293T cell line overexpressing human HSD17β13) (Homo sapiens, UniProt Q7Z5P4)
Sequence (Q7Z5P4 20-300): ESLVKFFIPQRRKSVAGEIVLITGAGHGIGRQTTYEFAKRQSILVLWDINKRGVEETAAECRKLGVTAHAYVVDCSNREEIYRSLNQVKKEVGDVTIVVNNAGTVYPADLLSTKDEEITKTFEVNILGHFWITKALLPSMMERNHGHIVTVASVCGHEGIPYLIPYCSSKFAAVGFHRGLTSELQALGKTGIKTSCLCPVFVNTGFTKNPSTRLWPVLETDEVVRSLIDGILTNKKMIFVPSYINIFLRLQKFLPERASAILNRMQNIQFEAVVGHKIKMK
Assay: HSD17β13 inhibitor cell-based screening assay (conversion of estradiol-d2 to estrone-d2 by RF-MS)
Conditions: conversion of estradiol-d2 to estrone-d2 after 24 hours
Exercise: for every item that follows, state its recorded IC50.

What does the data say about its IC50? Entry: O=c1c2c(nc(-c3cc(F)c(F)cc3C3CC3)n1Cc1nn[nH]n1)sc1c(O)c(Cl)ccc12
1000 to 100000 nM

Do the same for O=c1c2c(nc(-c3cc(Cl)c(F)cc3C3CC3)n1Cc1cnco1)sc1c(O)c(Cl)ccc12 please
< 100 nM

Do the same for O=c1ccc(Cn2c(-c3cc(F)c(F)cc3C3CC3)nc3sc4c(O)c(Cl)ccc4c3c2=O)c[nH]1 please
< 100 nM

Do the same for O=c1c2c(nc(-c3cnc(C(F)(F)F)cc3C3CC3)n1Cc1ccc(C(F)(F)F)nc1)sc1c(O)c(Cl)ccc12 please
< 100 nM

Do the same for N#Cc1ccc(-c2nc3sc4c(O)c(Cl)ccc4c3c(=O)n2Cc2cccnc2)c(C2CC2)c1 please
< 100 nM

Do the same for COc1ccc(-c2nc3sc4c(O)c(C=O)ccc4c3c(=O)n2Cc2cnco2)c(C2CC2)c1 please
1000 to 100000 nM

Do the same for O=c1c2c(nc(-c3cc(F)c(F)cc3C3CC3)n1Cc1ccc(C(F)(F)F)nc1)sc1c(O)c(Cl)ccc12 please
< 100 nM

Do the same for COc1ccc(-c2nc3sc4c(O)c(Cl)ccc4c3c(=O)n2CC(=O)O)c(C2CC2)c1 please
1000 to 100000 nM

Do the same for Cc1cc(Cn2c(-c3ccc(F)cc3C3CC3)nc3sc4c(O)c(Cl)ccc4c3c2=O)on1 please
< 100 nM

Do the same for COc1ccc(-c2nc3sc4c(O[C@@H]5O[C@H](C(=O)O)[C@@H](O)[C@H](O)[C@H]5O)cccc4c3c(=O)n2Cc2cnco2)c(C2CC2)c1 please
1000 to 100000 nM

Do the same for COc1ccc(-c2nc3sc4c(O)c(Cl)ccc4c3c(=O)n2Cc2cnco2)c(C)c1 please
100 to 500 nM

Do the same for O=c1c2c(nc(-c3ncc(Cl)cc3C3CC3)n1Cc1cc(C(F)(F)F)no1)sc1c(O)c(Cl)ccc12 please
< 100 nM

Do the same for CCc1ncc(Cn2c(-c3cc(F)c(F)cc3C3CC3)nc3sc4c(O)c(Cl)ccc4c3c2=O)s1 please
< 100 nM

Do the same for COc1ccc(-c2nc3sc4c(O)c(Cl)ccc4c3c(=O)n2Cc2ocnc2F)c(C2CC2)c1 please
< 100 nM

Do the same for COc1ccc(-c2nc3sc4c(C(F)F)cccc4c3c(=O)n2Cc2cnco2)c(C2CC2)c1 please
1000 to 100000 nM

Do the same for COc1ccc(-c2nc3sc4c(O)c(Cl)ccc4c3c(=O)n2Cc2cc(C(F)F)no2)c(C2CC2)c1 please
< 100 nM

Do the same for O=c1c2c(nc(-c3ccccc3C3CC3)n1Cc1cnco1)sc1c(O)c(Cl)ccc12 please
< 100 nM

Do the same for COc1cc(C2CC2)c(-c2nc3sc4c(O)c(Cl)ccc4c3c(=O)n2Cc2cnco2)cc1F please
< 100 nM

Do the same for COCCn1cc(Cn2c(-c3ccc(OC)cc3C3CC3)nc3sc4c(O)c(Cl)ccc4c3c2=O)cn1 please
< 100 nM

Do the same for COc1ccc(-c2nc3sc4c(O)c(Cl)ccc4c3c(=O)n2Cc2cnco2)c(Br)c1 please
< 100 nM

Do the same for C=Cc1cccc2c1sc1nc(-c3ccc(OC)cc3C3CC3)n(Cc3cnco3)c(=O)c12 please
1000 to 100000 nM

Do the same for O=c1c2c(nc(-c3ccc(-c4ncco4)cc3C3CC3)n1Cc1cnco1)sc1c(O)c(Cl)ccc12 please
< 100 nM

Do the same for O=c1c2c(nc(-c3cc(F)c(C(F)F)cc3C3CC3)n1Cc1cnco1)sc1c(O)c(Cl)ccc12 please
< 100 nM

Do the same for O=c1c2c(nc(-c3ncc(F)cc3C3CC3)n1Cc1ccc(C(F)(F)F)nc1)sc1c(O)c(Cl)ccc12 please
< 100 nM

Do the same for COc1ccc(-c2nc3sc4c(N(C(C)=O)C(C)=O)cccc4c3c(=O)n2Cc2cnco2)c(C2CC2)c1 please
1000 to 100000 nM

Do the same for O=c1c2c(nc(-c3ccc(C(F)F)cc3C3CC3)n1Cc1cnc(C(F)(F)F)nc1)sc1c(O)c(Cl)ccc12 please
< 100 nM

Do the same for Cn1ncc2cc(-c3nc4sc5c(O)c(Cl)ccc5c4c(=O)n3Cc3cc(C(F)(F)F)no3)c(C3CC3)cc21 please
< 100 nM

Do the same for N#Cc1ccc(-c2nc3sc4c(O)c(Cl)ccc4c3c(=O)n2Cc2cnc(C(F)(F)F)nc2)c(C2CC2)c1 please
< 100 nM

Do the same for O=c1c2c(nc(-c3sc4ccccc4c3C3CC3)n1Cc1cnco1)sc1c(O)c(Cl)ccc12 please
< 100 nM

Do the same for COc1ccc(-c2nc3sc4c(OC(C)=O)c(Cl)ccc4c3c(=O)n2Cc2cnco2)c(C2CC2)c1 please
< 100 nM
